# test-target: PI3Kα (Homo sapiens)
# Construct: purchased Invitrogen PV4788
# Sequence (P42336 whole entry): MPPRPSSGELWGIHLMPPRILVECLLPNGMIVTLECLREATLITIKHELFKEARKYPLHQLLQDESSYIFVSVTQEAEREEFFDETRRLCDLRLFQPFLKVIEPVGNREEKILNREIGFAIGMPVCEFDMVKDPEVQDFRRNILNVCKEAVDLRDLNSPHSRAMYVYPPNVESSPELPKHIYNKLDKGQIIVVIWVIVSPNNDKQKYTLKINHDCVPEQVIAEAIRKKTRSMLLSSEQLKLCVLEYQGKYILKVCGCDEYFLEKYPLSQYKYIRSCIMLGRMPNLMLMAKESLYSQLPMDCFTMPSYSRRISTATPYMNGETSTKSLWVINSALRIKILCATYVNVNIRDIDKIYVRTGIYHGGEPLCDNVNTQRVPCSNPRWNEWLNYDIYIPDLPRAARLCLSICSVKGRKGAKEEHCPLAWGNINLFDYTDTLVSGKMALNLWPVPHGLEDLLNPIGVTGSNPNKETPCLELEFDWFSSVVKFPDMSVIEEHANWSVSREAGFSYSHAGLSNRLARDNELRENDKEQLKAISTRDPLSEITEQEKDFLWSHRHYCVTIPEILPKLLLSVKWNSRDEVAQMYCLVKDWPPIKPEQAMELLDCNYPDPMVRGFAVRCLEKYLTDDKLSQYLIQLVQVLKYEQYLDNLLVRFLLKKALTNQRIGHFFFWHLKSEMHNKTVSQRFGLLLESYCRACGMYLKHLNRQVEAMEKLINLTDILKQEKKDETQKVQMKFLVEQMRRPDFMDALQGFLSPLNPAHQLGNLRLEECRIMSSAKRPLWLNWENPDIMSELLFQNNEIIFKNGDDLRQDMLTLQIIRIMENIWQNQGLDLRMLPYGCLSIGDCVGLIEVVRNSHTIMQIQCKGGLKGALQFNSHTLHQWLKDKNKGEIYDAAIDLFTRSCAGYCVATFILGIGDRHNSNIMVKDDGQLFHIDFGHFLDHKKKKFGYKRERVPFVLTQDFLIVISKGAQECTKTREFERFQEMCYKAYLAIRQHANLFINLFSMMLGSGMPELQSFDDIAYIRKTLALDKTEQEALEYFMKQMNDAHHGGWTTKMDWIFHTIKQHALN
# Sequence (P27986 whole entry partner): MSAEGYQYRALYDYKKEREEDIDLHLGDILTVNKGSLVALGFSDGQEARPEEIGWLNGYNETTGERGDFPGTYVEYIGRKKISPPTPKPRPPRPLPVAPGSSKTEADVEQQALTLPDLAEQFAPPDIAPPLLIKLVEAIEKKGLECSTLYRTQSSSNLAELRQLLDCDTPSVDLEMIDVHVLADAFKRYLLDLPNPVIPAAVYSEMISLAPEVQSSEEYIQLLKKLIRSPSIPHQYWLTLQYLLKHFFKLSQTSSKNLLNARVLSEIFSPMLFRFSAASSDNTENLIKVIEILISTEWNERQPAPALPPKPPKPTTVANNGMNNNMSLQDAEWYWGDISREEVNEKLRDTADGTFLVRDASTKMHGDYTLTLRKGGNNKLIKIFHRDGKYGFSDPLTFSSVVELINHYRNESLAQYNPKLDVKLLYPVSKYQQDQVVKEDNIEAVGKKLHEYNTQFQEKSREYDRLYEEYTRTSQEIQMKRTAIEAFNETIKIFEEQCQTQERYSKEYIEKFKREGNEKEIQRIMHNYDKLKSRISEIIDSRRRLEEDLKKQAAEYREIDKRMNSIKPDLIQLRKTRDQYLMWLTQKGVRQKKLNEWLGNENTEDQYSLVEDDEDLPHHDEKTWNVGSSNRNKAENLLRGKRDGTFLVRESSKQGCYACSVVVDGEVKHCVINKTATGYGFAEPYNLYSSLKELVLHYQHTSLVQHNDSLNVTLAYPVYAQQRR
# measurement-description: In vitro kinase activity (LabChip EZ Reader mobility shift), PI3Kα
# Type: biochemical
# test-parameters: kinase subtype PI3Kα (p110α/p85a)
Listed here: items and their measured IC50.
readout-name: IC50

• CC(Nc1ncnc(N)c1C#N)c1c(-c2cccc(F)c2)n(C)c2ccccc2c1=O (stereo not drawn) [Example 26] = > 1000 nM
• CCC(Nc1nc(N)nc(N)c1C#N)c1c(-c2ccccc2)oc2ccccc2c1=O (stereo not drawn) [Example 32] = > 1000 nM
• CC(Nc1ncnc(N)c1C#N)c1c(-c2ccccc2)oc2ccccc2c1=O (stereo not drawn) [Example 3] = > 1000 nM

====

# test-target: PI3Kβ (Homo sapiens)
# Construct: purchased Millipore 14-603-K
# Sequence (P42338 whole entry): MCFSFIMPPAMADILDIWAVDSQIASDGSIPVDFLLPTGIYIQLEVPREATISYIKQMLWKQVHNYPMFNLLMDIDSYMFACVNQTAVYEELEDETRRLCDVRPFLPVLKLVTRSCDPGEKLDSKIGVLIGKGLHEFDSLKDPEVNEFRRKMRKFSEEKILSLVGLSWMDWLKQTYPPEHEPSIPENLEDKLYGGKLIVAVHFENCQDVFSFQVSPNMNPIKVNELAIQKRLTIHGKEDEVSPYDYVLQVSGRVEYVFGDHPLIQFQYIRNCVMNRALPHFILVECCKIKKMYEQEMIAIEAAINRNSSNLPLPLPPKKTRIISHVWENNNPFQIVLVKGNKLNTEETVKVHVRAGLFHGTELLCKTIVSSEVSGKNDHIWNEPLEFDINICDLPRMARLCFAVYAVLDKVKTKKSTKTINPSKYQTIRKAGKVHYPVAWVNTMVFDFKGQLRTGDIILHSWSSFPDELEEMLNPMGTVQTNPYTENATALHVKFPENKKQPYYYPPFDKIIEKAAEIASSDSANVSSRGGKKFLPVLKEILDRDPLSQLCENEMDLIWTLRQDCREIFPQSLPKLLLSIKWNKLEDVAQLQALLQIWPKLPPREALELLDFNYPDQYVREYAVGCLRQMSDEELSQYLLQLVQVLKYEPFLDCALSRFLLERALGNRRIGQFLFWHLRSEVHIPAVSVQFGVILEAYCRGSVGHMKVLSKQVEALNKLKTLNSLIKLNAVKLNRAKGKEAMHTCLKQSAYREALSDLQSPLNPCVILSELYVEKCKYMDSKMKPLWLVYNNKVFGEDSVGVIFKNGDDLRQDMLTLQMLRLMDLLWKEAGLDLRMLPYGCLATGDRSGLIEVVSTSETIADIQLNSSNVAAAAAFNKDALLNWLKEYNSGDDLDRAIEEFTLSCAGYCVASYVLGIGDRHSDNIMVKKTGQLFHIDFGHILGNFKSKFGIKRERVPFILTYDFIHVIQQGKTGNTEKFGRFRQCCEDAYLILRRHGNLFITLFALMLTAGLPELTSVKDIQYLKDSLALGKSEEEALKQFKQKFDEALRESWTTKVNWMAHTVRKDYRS
# Sequence (P27986 whole entry partner): as the sequence (P27986 whole entry partner) above
# measurement-description: In vitro kinase activity (LabChip EZ Reader mobility shift), PI3Kβ
# Type: biochemical
# test-parameters: kinase subtype PI3Kβ (p110β)
readout-name: IC50

• CC(Nc1nc(N)nc(N)c1C#N)c1c(-c2cccc(F)c2)oc2ccccc2c1=O (stereo not drawn) = > 1000 nM
• CCC(Nc1nc(N)nc(N)c1C#N)c1c(-c2ccccc2)oc2ccccc2c1=O (stereo not drawn) = > 1000 nM
• N#Cc1c(N)ncnc1NCc1c(-c2ccccc2)[nH]c2ccccc2c1=O = > 1000 nM
